# Tested on: D. japonica cholinesterase (DjChE)
# run.description: Kinetics of irreversible
# Assay type: biochemical, Dugesia japonica
# condition.context: 1 mM ATCh; room temperature; mean± 95% confidence intervals
readout.label: kr (bimolecular rate constant), rates of inhibition by OP oxons

kr (bimolecular rate constant), rates of inhibition by OP oxons for CCOP(=O)(OCC)Oc1cc(C)nc(C(C)C)n1 [Diazinon oxon, diazinon oxon] is 22±2 × 10^5 M^−1min^−1

Query CCOC(=O)CC(SP(=O)(OC)OC)C(=O)OCC (stereo not shown) [Malaoxon, malaoxon] yields kr (bimolecular rate constant), rates of inhibition by OP oxons of 0.14± 0.01 × 10^5 M^−1min^−1

# molecule COP(=O)(OC)OC=C(Cl)Cl [Dichlorvos, dichlorvos] ; its kr (bimolecular rate constant), rates of inhibition by OP oxons = 9.1± 0.9 × 10^5 M^−1min^−1

Measured kr (bimolecular rate constant), rates of inhibition by OP oxons, CCOP(=O)(OCC)Oc1ccc([N+](=O)[O-])cc1 [Paraoxon, paraoxon] : 1.7± 0.1 × 10^5 M^−1min^−1
